B1: Steroid hormone receptor ERR2, residues 100 to 176; numbered along this chain, O95718 (parent)
chain: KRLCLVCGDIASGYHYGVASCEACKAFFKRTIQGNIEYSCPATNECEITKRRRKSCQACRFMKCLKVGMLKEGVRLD

Variants of: B1
method_description: abundance fitness (aPCA) (normalised: wild type 0, dead -1); higher = more abundant; growth selection in yeast, the domain comes from the species named
settings: Homo sapiens
Binary classification by abundance fitness, with -0.09 as an inclusive lower bound for label 1; all other cases are label 0.

V18W	label 0

Entry Y14A : is its abundance fitness no less than -0.09?
label 1

Entry K54W : is its abundance fitness no less than -0.09?
label 1

Entry A23T : is its abundance fitness no less than -0.09?
label 0

Entry A26P : is its abundance fitness no less than -0.09?
label 0

Entry C46R : is its abundance fitness no less than -0.09?
label 0

Entry Y14I : is its abundance fitness no less than -0.09?
label 1

Entry A11M : is its abundance fitness no less than -0.09?
label 0

Entry N35G : is its abundance fitness no less than -0.09?
label 1

Entry L3C : is its abundance fitness no less than -0.09?
label 0

Entry A42S : is its abundance fitness no less than -0.09?
label 0

Entry R30Y : is its abundance fitness no less than -0.09?
label 0

Entry C56W : is its abundance fitness no less than -0.09?
label 0

Entry T49Q : is its abundance fitness no less than -0.09?
label 0

Entry K50A : is its abundance fitness no less than -0.09?
label 1

Entry A11I : is its abundance fitness no less than -0.09?
label 0

Entry M62Q : is its abundance fitness no less than -0.09?
label 1
